// data source = PubChem BioAssay (NCI)

- System: A549/ATCC NSCLC
- experiment.description: NCI-60 one-dose screen, 48 h
- condition.label: 10 µM unless noted
About 83,000 compounds went through this panel and 20% of them were active in at least one assay; those are over-represented in the sample as a whole. Activity calls are given as the source filed them. Rule for the calls: active = growth percent below 10; inactive = the rest.
Hello, when you answer, please use one of the following outcomes: active, inactive

Sample answers from the record:
compound | experimental.target | assigned.label
O=S(=O)(Nc1cccc2cc(OS(=O)(=O)c3ccccc3)ccc12)c1ccccc1 | A549/ATCC NSCLC | inactive
CCCN1C(=O)CSC1=Nc1ccc2cc3ccc(N=C4SCC(=O)N4CCC)cc3nc2c1 | A549/ATCC NSCLC | inactive
Nc1nc(Nc2ccc(OCc3cccc(F)c3)cc2)c2c(n1)[nH]c1ccc(O)cc12 | A549/ATCC NSCLC | active

For CC(Cl)(CCl)CS(=O)(=O)c1ccc(Cl)cc1 (stereo not given) , which call appears in the assay record?
inactive

Tell me the recorded outcome of this test for COc1ccc2c(c1)O/C(=C/c1ccc(OCC(=O)Nc3ccc(S(N)(=O)=O)cc3)cc1)C2=O .
inactive

What is the recorded call for this compound in the test? COc1ccc(-c2nn(-c3ccc(NC(=O)Nc4ccc(Cl)c(Cl)c4)cc3)cc2-c2ccncc2)cc1Cl
inactive

# fetch the recorded call for CN1C(=O)C2(SCC(C(=O)NCC(=O)OC(C)(C)C)N2C(=O)C2CCCCC2)c2ccccc21 (stereo not given) here
inactive

Please let me know the test result on file for O=S(c1ccccc1)c1ccc2nnnn2n1 (stereo not given) .
inactive

Can you look up the reported call for COc1cccc(-c2nc3sccn3c2-c2ccnc(NCCNC(=O)Nc3cccc(C(F)(F)F)c3)n2)c1 for me?
inactive

Could you kindly confirm the outcome this assay logged for CC(C)(C)NCC(O)COc1c(Br)c(Br)c(Br)c2c1OC(C)(C)C2 (stereo not given) ?
active

====

- System: SK-MEL-2 melanoma
- experiment.description: NCI-60 one-dose screen, 48 h
- condition.label: 10 µM unless noted
The panel holds about 83,000 compounds, 20% with a hit somewhere; the sample as a whole holds those more often. Calls of active or inactive are those of the source. How the source made its calls: active means growth percent below 10; inactive means the rest.
Tick one outcome: active, inactive

Examples with answers:
compound | experimental.target | assigned.label
O=S(=O)(O)c1ccc(F)cc1 | SK-MEL-2 melanoma | inactive
CCOc1ccc(NC(=O)Nc2cc(C(C)C)ccc2C)cc1 | SK-MEL-2 melanoma | inactive
CS(=O)(=O)Nc1cccc(-c2ccc3ncnc(Nc4cncc(Cl)c4)c3c2)c1 | SK-MEL-2 melanoma | active
C/C(=N\N=C1/SCC(=O)N1c1ccccc1)c1ccco1 | SK-MEL-2 melanoma | inactive
C=C1C(=O)O[C@H]2[C@H]1CC/C(COC(=O)c1ccc(Cl)nc1)=C\CC[C@@]1(C)O[C@@H]21 | SK-MEL-2 melanoma | inactive

So what was the verdict on NC(CCCC(N)C(=O)c1ccccc1)C(=O)O (stereo unspecified) in this test?
inactive

Please let me know the test result on file for CN(C)CCS(=O)(=O)Nc1cc(-c2ccc3ncnc(Nc4ccc(F)c(Cl)c4)c3c2)cnc1Cl .
active

Fill in: this test's call for COc1ccccc1S(=O)(=O)Nc1ccc2c3c(cc(-c4cnn(C)c4)nc13)C(=O)N2C is ___
inactive

Recorded test outcome, item CCOC(=O)C1=C(N)Oc2cc(OC)ccc2C1c1ccc(F)c(F)c1 (stereo unspecified)
inactive

Called result for Nc1ncnc2c1c(-c1ccc(Oc3ccccc3)cc1)nn2C[C@H]1SSC[C@H]1O
active

====

- Tested on: PC-3 prostate
- experiment.description: NCI-60 one-dose screen, 48 h (100 = growth as untreated, 0 = no growth, -100 = all killed)
- condition.label: 10 µM unless noted
- Method: Growth inhibition of the PC-3 human tumor cell line is measured as a screen for anti-cancer activity. Cells are grown in 96 well plates and exposed to the test compound for 48 hours. Compounds are tested at a single concentration, which is 10^-5 M for most compounds. The reported endpoint is percent growth (GI% or GIPRCNT), where numbers from 0 - 100% represent growth inhibition, and numbers from -100% - 0 represent cell death. For example, a value of 40 represents 60% growth inhibition. […]
About 83,000 compounds went through this panel and 20% of them were active in at least one assay; those are over-represented in the sample as a whole.
Flag rule - growth less than 80% flags 1.0; the remaining entries get 0.0.

Worked examples follow.
compound | assigned.label
COc1ccccc1N1CCN(CC(O)COc2c(Br)c(Br)c(Br)c3c2OC(C)(C)C3)CC1 (stereo not drawn) | 1.0
C=C1C(=O)O[C@H]2[C@H]1CC/C(COC(=O)n1ccnc1C)=C\CC[C@@]1(C)O[C@@H]21 | 0.0
NC(CSC(c1ccccc1)(c1ccccc1)c1ccc(F)cc1)C(=O)O (stereo not drawn) | 1.0
COc1ccc(OC)c(NCC(=O)n2nc(/C=C\c3ccc(O)c(OC)c3)cc2/C=C\c2ccc(O)c(OC)c2)c1 | 1.0
CC(C)C1(C(C)C)NC(=O)NC1=O | 0.0
Cl[C@@H]1CCO[C@H](c2cc3ccccc3c3ccccc23)C1 | 0.0
CCn1cc(/C=C2\Oc3cc(OCC#N)ccc3C2=O)c2cc(OC)ccc21 | 1.0
CCN(CC)C(=O)C1CCN(C(=O)c2ccccc2)CC1 | 0.0
COc1cc(NS(C)(=O)=O)ccc1Cc1c2ccccc2nc2ccccc12 | 1.0
COc1ccccc1S(=O)(=O)Nc1ccc2c3c(cc(-c4cnn(C5CC5)c4)nc13)C(=O)N2C | 1.0

Determine whether this compound shows growth lower than 80% (ties excluded): O=C(N/N=C1\SCC(=O)N1c1ccccc1)c1cc(-c2cc3ccccc3o2)nn1-c1ccccc1
0.0

I wonder whether CC(/C=C/C=C(\C)[C@H](O)[C@H](C)C(=O)O[C@H]1C[C@H](C)C=C2C=C[C@@]3(C)O[C@@H](O)CC(=O)[C@]3(C)[C@H]21)=C\C=C\C(=O)O has growth below 80%. Can you tell?
1.0

Here's an entry: O=C(O)c1ccc(-n2cc(/C=N/Nc3ccc(Cl)cc3)c(-c3ccc(F)c(F)c3)n2)cc1 . Is its growth below 80%?
1.0

# strict comparison: is reported growth < 80%? input = CCCCCCCCCCCCCCCCCCNCc1ccc(Cl)cc1
1.0

Would you kindly verify if growth of O=S(=O)(O)c1ccc(F)cc1 is strictly less than 80%?
0.0

In the record for COc1ccccc1S(=O)(=O)Nc1ccc2c3c(cc(-c4cnn(C)c4)nc13)C(=O)N2C , is growth less than 80%?
1.0

Consider the compound COC(=O)c1ccc2c(c1)Oc1ccc(Cl)cc1-c1cc(C)nn1-2 . Is its growth strictly less than 80%?
1.0

====

- Test system: OVCAR-3 ovarian
- experiment.description: NCI-60 one-dose screen, 48 h (100 = growth as untreated, 0 = no growth, -100 = all killed)
- condition.label: 10 µM unless noted
This is part of a sample that, as a whole, favours compounds with a hit. Of some 83,000 tested, about 20% had one in any assay. The source made the active and inactive calls. How the source made its calls: active means growth percent below 10; inactive means the rest.
Recorded growth for the following compounds

compound | growth
Cc1cccc(CC(=O)c2ccccc2)n1 | 105% (inactive)
COc1ccc(CCNC=O)cc1OC | 110% (inactive)
Nc1ncc(-c2ccc3ncnc(Nc4ccc(F)c(Cl)c4)c3c2)cn1 | -57.4% (active)
O=C1c2ccccc2C(=O)c2c(NCCN=Cc3c(O)ccc4ccccc34)cccc21 | 83.7% (inactive)
Cn1cnc([N+](=O)[O-])c1N1c2ccncc2Sc2ccncc21 | 92.7% (inactive)

The reported value for CN(C)CC/C=C1\c2ccccc2Sc2ccc(Cl)cc21 in terms of growth is 74.4% (inactive)

Consider O=[N+]([O-])c1cccc2cc(S(=O)(=O)O)ccc12 . Its measured growth is 99.8% (inactive)

So for COc1ccc2c(c1)O/C(=C/c1ccc(OCC(=O)Nc3ccc(S(N)(=O)=O)cc3)cc1)C2=O , the logged growth turned out to be 104% (inactive)

Lab note: measured growth of O=C(Nc1ccc(-n2cc(-c3ccncc3)c(-c3ccc(O)c(Cl)c3)n2)cc1)Nc1cc(C(F)(F)F)cc(C(F)(F)F)c1 was 33.3% (inactive)

Data point: Nc1nccc2c1ccn2-c1ccc(NC(=O)c2ccc(N3CCOCC3)c(C(F)(F)F)c2)cc1 ; growth = 46% (inactive)

====

- Tested on: SK-MEL-28 melanoma
- experiment.description: NCI-60 one-dose screen, 48 h
- condition.label: 10 µM unless noted
Compounds without any hit were thinned out: in the full panel of roughly 83,000, 20% have a hit. Calls of active or inactive are those of the source. The calls were made as follows: active = growth percent below 10; inactive = the rest.
Just give me one of these, please: Yes = active, No = inactive

compound.structure | assigned.label
CC[C@@]1(O)C(=O)OCc2c1cc1n(c2=O)Cc2c-1nc1ccccc1c2/C=N/OC(C)(C)C | No
CC(/C=C/C=C(\C)[C@H](O)[C@H](C)C(=O)O[C@H]1C[C@H](C)C=C2C=C[C@@]3(C)O[C@@H](O)CC(=O)[C@]3(C)[C@H]21)=C\C=C\C(=O)O | Yes
C[C@]12O[C@H]1[C@H](O)c1c(cc(O)c3c1C(=O)c1cccc(O)c1-3)C2=O | No

Next item in the queue.
How did this test come out for COC(=O)c1oc2c(C(=O)/C=C/c3ccc(OC)cc3)c(OCCN3CCOCC3)ccc2c1C ?
Yes
